Test: ACEA_ER_AUC_viability: ACEA Biosciences xCELLigence Real-Time Cell Analysis on Estrogen Receptor Agonism for Viability (AID 2283782);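 further: continuous compound exposure with impedance area under curve over 80 h; hit means loss of impedance signal meaning reduced cell growth or viability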
Protocol: ACEA_ER is a cell-based, single-readout assay that uses T47D, a human breast cell line, with measurements taken at 80 hours after chemical dosing in a 96-well plate, although TO2 (mc0.srcf) used a 384-well plate. Differences in plate size can be ignored given data normalization.ACEA_ER_AUC_viability is one of two assay component(s) measured or calculated from the ACEA_ER assay. […]
Records with an inconclusive call do not appear. Active and inactive are the calls of the source. How the source made its calls: active means hit-call score of the fitted dose curve at least 0.9, where 1 is the maximum; inconclusive means response in the unintended direction; inactive means score below 0.9.
Returns: one label drawn from active, inactive

Illustrative cases are given below, each with its answer.
> print(dat)
                             line.notation  discrete.label
1                        CCCCCCCCCCOC(C)=O        inactive
2  O=S(=O)(O)c1ccc2cc(O)c(S(=O)(=O)O)cc2c1          active
3                             CNC(=S)N(C)C        inactive

Could you now consider this next molecule?
Short answer needed: outcome of this test for "CNC(=S)NN" ?
inactive
